Sourced from patent US20230271959A1

# TEST_SYSTEM: human recombinant Bcl-2 protein (Homo sapiens, UniProt P10415)
# Construct: purchased Beijing Yigiao Shenzhou Biotechnology Co., Ltd. 10195-HOSE
# Sequence (P10415 whole entry): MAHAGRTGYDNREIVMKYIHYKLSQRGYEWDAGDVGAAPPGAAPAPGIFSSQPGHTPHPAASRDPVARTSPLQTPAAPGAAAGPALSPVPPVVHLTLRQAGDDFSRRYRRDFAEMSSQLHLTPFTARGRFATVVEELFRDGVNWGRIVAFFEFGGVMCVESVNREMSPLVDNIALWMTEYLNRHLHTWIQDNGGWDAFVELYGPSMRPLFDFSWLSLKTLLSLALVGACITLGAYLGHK
# ASSAY_OVERVIEW: Fluorescence polarization test for inhibition of BCL-2 binding to FITC-BIM
# DETAILS: 5 nM BCL-2, 5 nM FITC-BIM, read-out: FP BCL-2 IC50
REPORTED_ENDPOINT: pIC50
One number for each entry, as −log10 of the molar value.

Examples with their reported pIC50 follow.
INSERT INTO measurements (smiles_input, test_system, reported_endpoint, recorded_result) VALUES
  ('C[C@@H]1CCC(CN2CCN(c3ccc(C(=O)NS(=O)(=O)c4cc(F)c(NC[C@H]5COCCO5)c([N+](=O)[O-])c4)c(Oc4cnc5[nH]ccc5c4)c3)C[C@H]2C)=C(c2ccc(Cl)cc2)C1', 'human recombinant Bcl-2 protein (Homo sapiens, UniProt P10415)', 'pIC50', 8.83),
  ('C[C@H]1CCC(CN2CCN(c3ccc(C(=O)NS(=O)(=O)c4ccc(NC[C@H]5COCCO5)c([N+](=O)[O-])c4)c(Oc4cnc5[nH]ccc5c4)c3)C[C@H]2C)=C(c2ccc(Cl)cc2)C1', 'human recombinant Bcl-2 protein (Homo sapiens, UniProt P10415)', 'pIC50', 8.47),
  ('C[C@@H]1CCC(CN2CCN(c3ccc(C(=O)NS(=O)(=O)c4ccc(NC[C@H]5COCCO5)c([N+](=O)[O-])c4)c(Oc4cnc5[nH]ccc5c4)c3)C[C@H]2C)=C(c2ccc(Cl)cc2)C1', 'human recombinant Bcl-2 protein (Homo sapiens, UniProt P10415)', 'pIC50', 8.59),
  ('C[C@@H]1CN(c2ccc(C(=O)NS(=O)(=O)c3cc(F)c(NCC4CCOCC4)c([N+](=O)[O-])c3)c(Oc3cnc4[nH]ccc4c3)c2)CCN1CC1=C(c2ccc(Cl)cc2)CCC(C)(C)C1', 'human recombinant Bcl-2 protein (Homo sapiens, UniProt P10415)', 'pIC50', 8.86),
  ('C[C@@H]1CN(c2ccc(C(=O)NS(=O)(=O)c3cc(F)c(NC[C@@H]4COCCO4)c([N+](=O)[O-])c3)c(Oc3cnc4[nH]ccc4c3)c2)CCN1CC1=C(c2ccc(Cl)cc2)CC(C)(C)CC1', 'human recombinant Bcl-2 protein (Homo sapiens, UniProt P10415)', 'pIC50', 8.64),
  ('C[C@@H]1CN(c2ccc(C(=O)NS(=O)(=O)c3cc(F)c(NCC4CCOCC4)c([N+](=O)[O-])c3)c(Oc3cnc4[nH]ccc4c3)c2)CCN1CC1=C(c2ccc(Cl)cc2)CCC2(CC2)C1', 'human recombinant Bcl-2 protein (Homo sapiens, UniProt P10415)', 'pIC50', 8.50),
  ('C[C@@H]1CCC(CN2CCN(c3ccc(C(=O)NS(=O)(=O)c4ccc(NCC5CCOCC5)c([N+](=O)[O-])c4)c(Oc4cnc5[nH]ccc5c4)c3)C[C@H]2C)=C(c2ccc(Cl)cc2)C1', 'human recombinant Bcl-2 protein (Homo sapiens, UniProt P10415)', 'pIC50', 8.67),
  ('C[C@@H]1CN(CC2=C(c3ccc(Cl)cc3)CCC(C)(C)C2)CCN1c1ccc(C(=O)NS(=O)(=O)c2ccc(NC[C@H]3COCCO3)c([N+](=O)[O-])c2)c(Oc2cnc3[nH]ccc3c2)c1', 'human recombinant Bcl-2 protein (Homo sapiens, UniProt P10415)', 'pIC50', 8.30);

Hey, quick one: what's pIC50 for each of these?
1. C[C@@H]1CN(c2ccc(C(=O)NS(=O)(=O)c3cc(F)c(NCC4CCOCC4)c([N+](=O)[O-])c3)c(Oc3cnc4[nH]ccc4c3)c2)CCN1CC1=C(c2ccc(Cl)cc2)CC(C)(C)C(C)(C)C1
2. C[C@@H]1CN(c2ccc(C(=O)NS(=O)(=O)c3cc(F)c(NCC4CCOCC4)c([N+](=O)[O-])c3)c(Oc3cnc4[nH]ccc4c3)c2)CCN1CC1=C(c2ccc(Cl)cc2)CC(C)(C)CC1
3. C[C@@H]1CN(c2ccc(C(=O)NS(=O)(=O)c3ccc(NCC4CCOCC4)c([N+](=O)[O-])c3)c(Oc3cnc4[nH]ccc4c3)c2)[C@H](C)CN1CC1=C(c2ccc(Cl)cc2)CC(C)(C)CC1
4. C[C@@H]1CN(c2ccc(C(=O)NS(=O)(=O)c3cc(F)c(NC[C@H]4COCCO4)c([N+](=O)[O-])c3)c(Oc3cnc4[nH]ccc4c3)c2)CCN1CC1=C(c2ccc(Cl)cc2)CCC2(CC2)C1
5. C[C@H]1CCC(CN2CCN(c3ccc(C(=O)NS(=O)(=O)c4ccc(NCC5CCOCC5)c([N+](=O)[O-])c4)c(Oc4cnc5[nH]ccc5c4)c3)C[C@H]2C)=C(c2ccc(Cl)cc2)C1

OUTPUT:
1: 8.75; 2: 8.69; 3: 7.52; 4: 8.53; 5: 8.22

----------
# TEST_SYSTEM: human recombinant Bcl-XL protein (Homo sapiens, UniProt Q07817)
# Sequence (Q07817 whole entry): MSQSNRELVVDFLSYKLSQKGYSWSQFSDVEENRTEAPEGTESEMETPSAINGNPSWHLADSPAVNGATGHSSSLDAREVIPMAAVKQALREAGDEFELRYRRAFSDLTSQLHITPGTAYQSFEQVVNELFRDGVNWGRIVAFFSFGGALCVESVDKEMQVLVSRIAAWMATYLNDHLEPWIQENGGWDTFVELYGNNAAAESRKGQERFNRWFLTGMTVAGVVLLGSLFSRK
# ASSAY_OVERVIEW: Fluorescence polarization test for inhibition of BCL-XL binding to FITC-BIM
# DETAILS: 10 nM BCL-XL, 10 nM FITC-BIM, read-out: FP BCL-XL IC50
# Description: Fluorescence polarization assay was used to evaluate the effect of the compounds of the present invention on the biological activity of BCL-XL. The effects of the compounds on the biological activity of BCL-XL were evaluated by detecting the effects of the compounds on the binding activity of BCL-XL to BIM using an affinity assay method based on the principle of fluorescence polarization. […]
pIC50: −log10 of the molar value.
REPORTED_ENDPOINT: pIC50

Examples with their reported pIC50 follow.
INSERT INTO assay_data (smiles_input, reported_endpoint, recorded_result) VALUES
  ('C[C@@H]1CN(CC2=C(c3ccc(Cl)cc3)CCC(C)(C)C2)CCN1c1ccc(C(=O)NS(=O)(=O)c2ccc(NC[C@H]3COCCO3)c([N+](=O)[O-])c2)c(Oc2cnc3[nH]ccc3c2)c1', 'pIC50', '< 6.00'),
  ('C[C@@H]1CN(c2ccc(C(=O)NS(=O)(=O)c3ccc(NCC4CCOCC4)c([N+](=O)[O-])c3)c(Oc3cnc4[nH]ccc4c3)c2)CCN1CC1=C(c2ccc(Cl)cc2)CC(C)(C)C(C)(C)C1', 'pIC50', '< 6.00'),
  ('C[C@H]1CN(c2ccc(C(=O)NS(=O)(=O)c3ccc(NC[C@@H]4COCCO4)c([N+](=O)[O-])c3)c(Oc3cnc4[nH]ccc4c3)c2)CCN1CC1=C(c2ccc(Cl)cc2)CC(C)(C)CC1', 'pIC50', '< 6.00');

Hey, quick one: what's pIC50 for each of these?
1. C[C@@H]1CN(c2ccc(C(=O)NS(=O)(=O)c3cc(F)c(NC[C@H]4COCCO4)c([N+](=O)[O-])c3)c(Oc3cnc4[nH]ccc4c3)c2)CCN1CC1=C(c2ccc(Cl)cc2)CCC(C)(C)C1
2. C[C@H]1CN(c2ccc(C(=O)NS(=O)(=O)c3ccc(NC[C@H]4COCCO4)c([N+](=O)[O-])c3)c(Oc3cnc4[nH]ccc4c3)c2)CCN1CC1=C(c2ccc(Cl)cc2)CC(C)(C)CC1

OUTPUT:
6.08
< 6.00

----------
# TEST_SYSTEM: human recombinant Bcl-2 protein (Homo sapiens)
# ASSAY_OVERVIEW: Fluorescence polarization test for inhibition of BCL-2 binding to FITC-BIM
# DETAILS: 5 nM BCL-2, 5 nM FITC-BIM, read-out: FP BCL-2 IC50
API: label(entry) gives yes if the entry's IC50 is strictly smaller than 2 nM; on equality or larger values it gives no.

INSERT INTO assay_data (compound, class_name) VALUES
  ('C[C@H]1CCC(CN2CCN(c3ccc(C(=O)NS(=O)(=O)c4cc(F)c(NCC5CCOCC5)c([N+](=O)[O-])c4)c(Oc4cnc5[nH]ccc5c4)c3)C[C@H]2C)=C(c2ccc(Cl)cc2)C1 [Example 14]', 'no'),
  ('C[C@@H]1CN(CC2=C(c3ccc(Cl)cc3)CC(C)(C)CC2)CCN1c1ccc(C(=O)NS(=O)(=O)c2cc(F)c(NC[C@H]3COCCO3)c([N+](=O)[O-])c2)c(Oc2cnc3[nH]ccc3c2)c1 [Example 46]', 'yes'),
  ('C[C@@H]1CN(c2ccc(C(=O)NS(=O)(=O)c3cc(F)c(NC[C@H]4COCCO4)c([N+](=O)[O-])c3)c(Oc3cnc4[nH]ccc4c3)c2)CCN1CC1=C(c2ccc(Cl)cc2)CC(C)(C)C(C)(C)C1 [Example 41]', 'yes'),
  ('C[C@H]1CN(c2ccc(C(=O)NS(=O)(=O)c3cc(F)c(NC[C@H]4COCCO4)c([N+](=O)[O-])c3)c(Oc3cnc4[nH]ccc4c3)c2)CCN1CC1=C(c2ccc(Cl)cc2)CC(C)(C)CC1 [Example 47]', 'no'),
  ('C[C@@H]1CN(CC2=C(c3ccc(Cl)cc3)CCC(C)(C)C2)CCN1c1ccc(C(=O)NS(=O)(=O)c2cc(F)c(NC[C@H]3COCCO3)c([N+](=O)[O-])c2)c(Oc2cnc3[nH]ccc3c2)c1 [Example 45]', 'no'),
  ('C[C@@H]1CN(CC2=C(c3ccc(Cl)cc3)CC(C)(C)CC2)CCN1c1ccc(C(=O)NS(=O)(=O)c2ccc(NCC3CCN(C4COC4)CC3)c([N+](=O)[O-])c2)c(Oc2cnc3[nH]ccc3c2)c1 [Example 9]', 'no'),
  ('C[C@H]1CN(c2ccc(C(=O)NS(=O)(=O)c3ccc(NC[C@H]4COCCO4)c([N+](=O)[O-])c3)c(Oc3cnc4[nH]ccc4c3)c2)CCN1CC1=C(c2ccc(Cl)cc2)CC(C)(C)CC1 [Example 48]', 'no'),
  ('C[C@@H]1CCC(CN2CCN(c3ccc(C(=O)NS(=O)(=O)c4ccc(NC[C@H]5COCCO5)c([N+](=O)[O-])c4)c(Oc4cnc5[nH]ccc5c4)c3)[C@H](C)C2)=C(c2ccc(Cl)cc2)C1 [Example 24]', 'no');

Here's the next entry for you.
INPUT: Below 2 nM on IC50? Entry C[C@@H]1CN(c2ccc(C(=O)NS(=O)(=O)c3ccc(NC[C@H]4COCCO4)c([N+](=O)[O-])c3)c(Oc3cnc4[nH]ccc4c3)c2)CCN1CC1=C(c2ccc(Cl)cc2)CC(C)(C)CC1 [Example 5]
OUTPUT: yes
